- experimental-target: hα4 and β1 integrins (VLA-4) (Homo sapiens, UniProt P05556+P13612)
- Sequence (P13612 34-1032): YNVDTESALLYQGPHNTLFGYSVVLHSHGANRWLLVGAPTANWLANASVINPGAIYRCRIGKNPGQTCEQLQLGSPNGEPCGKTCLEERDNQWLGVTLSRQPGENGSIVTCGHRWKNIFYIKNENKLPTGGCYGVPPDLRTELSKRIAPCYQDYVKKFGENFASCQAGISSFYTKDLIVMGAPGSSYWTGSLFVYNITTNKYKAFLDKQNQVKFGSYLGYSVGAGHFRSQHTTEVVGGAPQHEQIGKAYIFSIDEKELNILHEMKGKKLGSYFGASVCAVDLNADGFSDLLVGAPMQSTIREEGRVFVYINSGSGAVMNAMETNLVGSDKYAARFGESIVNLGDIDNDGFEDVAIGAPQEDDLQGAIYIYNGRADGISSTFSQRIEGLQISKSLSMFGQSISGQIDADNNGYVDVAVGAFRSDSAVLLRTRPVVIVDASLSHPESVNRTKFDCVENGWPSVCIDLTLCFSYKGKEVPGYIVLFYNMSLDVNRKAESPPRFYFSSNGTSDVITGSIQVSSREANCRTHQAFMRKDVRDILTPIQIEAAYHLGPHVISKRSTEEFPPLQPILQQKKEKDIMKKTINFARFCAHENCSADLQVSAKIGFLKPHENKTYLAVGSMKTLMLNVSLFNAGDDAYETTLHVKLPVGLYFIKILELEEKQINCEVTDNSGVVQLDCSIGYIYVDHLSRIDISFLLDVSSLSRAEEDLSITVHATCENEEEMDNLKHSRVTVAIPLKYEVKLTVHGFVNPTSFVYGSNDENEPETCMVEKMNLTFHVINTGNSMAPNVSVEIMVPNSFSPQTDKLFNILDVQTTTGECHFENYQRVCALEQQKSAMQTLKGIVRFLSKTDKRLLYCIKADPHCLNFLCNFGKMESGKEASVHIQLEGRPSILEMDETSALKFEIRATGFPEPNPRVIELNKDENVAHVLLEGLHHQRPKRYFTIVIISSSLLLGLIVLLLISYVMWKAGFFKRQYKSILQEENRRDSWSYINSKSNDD
- Sequence (P05556 21-798): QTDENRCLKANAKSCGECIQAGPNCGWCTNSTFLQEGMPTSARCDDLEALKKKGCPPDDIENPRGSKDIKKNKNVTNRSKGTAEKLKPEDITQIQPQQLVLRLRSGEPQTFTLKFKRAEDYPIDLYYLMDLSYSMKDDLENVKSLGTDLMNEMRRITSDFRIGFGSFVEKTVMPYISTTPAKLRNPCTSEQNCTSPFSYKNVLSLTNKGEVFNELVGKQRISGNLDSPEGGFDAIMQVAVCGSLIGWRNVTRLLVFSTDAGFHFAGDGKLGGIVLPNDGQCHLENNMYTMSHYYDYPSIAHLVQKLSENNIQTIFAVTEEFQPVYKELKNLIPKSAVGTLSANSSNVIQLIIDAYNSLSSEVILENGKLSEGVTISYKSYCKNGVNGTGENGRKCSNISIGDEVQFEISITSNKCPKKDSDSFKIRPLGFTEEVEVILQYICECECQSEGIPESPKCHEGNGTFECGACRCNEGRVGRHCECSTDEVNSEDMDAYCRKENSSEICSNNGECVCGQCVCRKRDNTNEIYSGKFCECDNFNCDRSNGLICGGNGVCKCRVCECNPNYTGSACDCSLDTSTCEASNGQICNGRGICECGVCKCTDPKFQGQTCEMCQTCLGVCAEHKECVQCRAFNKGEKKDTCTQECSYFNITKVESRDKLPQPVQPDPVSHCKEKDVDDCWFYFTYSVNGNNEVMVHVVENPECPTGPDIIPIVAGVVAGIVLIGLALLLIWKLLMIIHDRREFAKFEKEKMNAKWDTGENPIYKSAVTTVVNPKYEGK
- protocol-description: In vitro evaluation: inhibition of binding of CHO cells expressing hα4 and β1 integrins to Eu3+-hVCAM-1 D1D7-IgG
- measurement-setup: ligand Eu3+-hVCAM-1 D1D7-IgG 2 nM, Ki calculated from IC50
Overview of recorded pKi for various compounds
Scale note: pKi = -log10(concentration in M).

pKi lookup needed for O=C(O)CCc1cnc([C@@H]2C[C@H](F)CN2C(=O)Cc2cc(Cl)c(NC(=O)c3csc4ccccc34)cc2Cl)s1 , thanks. 9.16

Please give the result for O=C(O)CCc1cnc([C@@H]2[C@@H](O)CCN2C(=O)Cc2cc(Cl)c(Nc3nc4ccccc4o3)cc2Cl)s1 too. 7.44

Another compound: O=C(O)CCc1cnc([C@@H]2C[C@@H]3CCCC[C@@H]3N2C(=O)Cc2cc(Cl)c(NC(=O)c3csc4ccccc34)cc2F)s1 8.22

---

- experimental-target: hα4 and β1 integrins (VLA-4) (Homo sapiens, UniProt P05556+P13612)
- protocol-description: In vitro evaluation: inhibition of binding of CHO cells expressing hα4 and β1 integrins to Eu3+-hVCAM-1 D1D7-IgG
- measurement-setup: ligand Eu3+-hVCAM-1 D1D7-IgG 2 nM, Ki calculated from IC50
attribute-measured: pKi
Entry type: numeric. Quantity: pKi, the -log10 of concentration in molar units.

[[record]]
chemical_smiles = "COC1CN([C@H]2C[C@@H](c3ncc(CCC(=O)O)s3)N(C(=O)Cc3cc(Cl)c(NC(=O)c4coc5ccccc45)cc3F)C2)C1"
attribute_measured = "pKi"
observed_value = 8.92

[[record]]
chemical_smiles = "CC(C)O[C@H]1C[C@@H](c2ncc(CCC(=O)O)s2)N(C(=O)Cc2cc(Cl)c(NC(=O)c3cn(C)c4ccccc34)cc2Cl)C1"
attribute_measured = "pKi"
observed_value = 8.29

[[record]]
chemical_smiles = "CO[C@H]1C[C@@H](c2ncc(CCC(=O)O)s2)N(C(=O)Cc2ccc(Nc3nc4c(Cl)cccc4s3)c(Cl)c2)C1"
attribute_measured = "pKi"
observed_value = 8.16


Which pKi reading was recorded for the compound Cn1cc(C(=O)Nc2cc(Cl)c(CC(=O)N3C[C@@H](N4CCC(F)(F)CC4)C[C@H]3c3ncc(CCC(=O)O)s3)cc2Cl)c2ccccc21 ? 8.92

Entry to check: CO[C@@H]1C[C@@H](c2ncc(CCC(=O)O)s2)N(C(=O)Cc2cc(Cl)c(NC(=O)c3cn(C)c4ccccc34)cc2Cl)C1 8.19

Same read-out for CON(C)[C@H]1C[C@@H](c2ncc(CCC(=O)O)s2)N(C(=O)Cc2cc(Cl)c(NC(=O)c3cn(C)c4ccccc34)cc2F)C1 ? 8.35

Again, but for CCOC1CN([C@H]2C[C@@H](c3ncc(CCC(=O)O)s3)N(C(=O)Cc3cc(Cl)c(NC(=O)c4cn(C)c5ccccc45)cc3Cl)C2)C1 8.64

Same thing, different compound: CCOC[C@@H]1CC[C@@H](c2ncc(CCC(=O)O)s2)N1C(=O)Cc1cc(Cl)c(NC(=O)c2csc3ccccc23)cc1F 7.66

// repeat for CC(C)O[C@H]1C[C@@H](c2ncc(CCC(=O)O)s2)N(C(=O)Cc2cc(Cl)c(NC(=O)c3csc4ccccc34)cc2F)C1 and report 8.77

---

- experimental-target: hα4 and β1 integrins (VLA-4) (Homo sapiens, UniProt P05556+P13612)
- protocol-description: In vitro evaluation: inhibition of binding of CHO cells expressing hα4 and β1 integrins to Eu3+-hVCAM-1 D1D7-IgG
- measurement-setup: ligand Eu3+-hVCAM-1 D1D7-IgG 2 nM, Ki calculated from IC50
Below, each entry is listed alongside its reported log10(Ki).
// do not treat as linear: log10 of Ki, unit nM

[[record]]
molecule = "O=C(O)CCc1cnc([C@@H]2C[C@H](N3CCN(CC(F)(F)F)CC3)CN2C(=O)Cc2cc(Cl)c(NC(=O)c3coc4ccccc34)cc2Cl)s1 [Example 84]"
experimental_target = "hα4 and β1 integrins (VLA-4) (Homo sapiens, UniProt P05556+P13612)"
observed_value = 0.18

[[record]]
molecule = "CON(C)[C@H]1C[C@@H](c2ncc(CCC(=O)O)s2)N(C(=O)Cc2cc(Cl)c(NC(=O)c3coc4ccccc34)cc2Cl)C1 [Example 132]"
experimental_target = "hα4 and β1 integrins (VLA-4) (Homo sapiens, UniProt P05556+P13612)"
observed_value = 1.11

[[record]]
molecule = "CCO[C@H]1CCN(C(=O)Cc2ccc3nc(Nc4ccccc4C)oc3c2)[C@@H]1c1ncc(CCC(=O)O)o1 [Example 104]"
experimental_target = "hα4 and β1 integrins (VLA-4) (Homo sapiens, UniProt P05556+P13612)"
observed_value = 0.65


What measured log10(Ki) goes with CCO[C@H]1CCN(C(=O)Cc2cc(Cl)c(Nc3nc4ccccc4s3)cc2Cl)[C@@H]1c1ncc(CCC(=O)O)s1 [Example 115] ? 0.92

Lookup Cn1cc(C(=O)Nc2cc(Cl)c(CC(=O)N3C[C@@H](Oc4cccnc4)C[C@H]3c3ncc(CCC(=O)O)s3)cc2Cl)c2ccccc21 [Example 44] 0.59

One more molecule: CO[C@@H]1C[C@@H](c2ncc(CCC(=O)O)s2)N(C(=O)Cc2cc(Cl)c(NC(=O)c3csc4ccccc34)cc2F)C1 [Example 25] -0.08

---

- protocol-description: Dispersibility test in Japanese Pharmacopoeia First and Second Solution
- Assay type: physicochemical
- measurement-setup: JP1, pH 1.2
attribute-measured: Dispersibility in Japanese Pharmacopoeia First Solution (µg/mL)
Give the number; µg/mL is assumed, so skip it.

[[record]]
chemical_smiles = "CO[C@H]1C[C@@H](c2ncc(CCC(=O)O)s2)N(C(=O)Cc2ccc(Nc3nc4ccccc4o3)c(Cl)c2)C1"
observed_value = 700


Param item = C[C@@H]1CN([C@H]2C[C@@H](c3ncc(CCC(=O)O)s3)N(C(=O)Cc3cc(Cl)c(NC(=O)c4csc5ccccc45)cc3Cl)C2)C[C@H](C)O1 ; retrieve measured Dispersibility in Japanese Pharmacopoeia First Solution. 1200

Now consider C[C@@H]1CN([C@H]2C[C@@H](c3ncc(CCC(=O)O)s3)N(C(=O)Cc3cc(Cl)c(NC(=O)c4cn(C)c5ccccc45)cc3Cl)C2)C[C@H](C)O1 . 1200

---

- experimental-target: hα4 and β1 integrins (VLA-4) (Homo sapiens, UniProt P05556+P13612)
- protocol-description: In vitro evaluation: inhibition of binding of CHO cells expressing hα4 and β1 integrins to Eu3+-hVCAM-1 D1D7-IgG
- measurement-setup: ligand Eu3+-hVCAM-1 D1D7-IgG 2 nM, Ki calculated from IC50
pKi: −log10 of the molar value.
Could you label it Satisfied if measured pKi is 8 or higher, and Not satisfied otherwise?

Worked examples follow.
[[record]]
chemical_smiles = "CCO[C@H]1CCN(C(=O)Cc2cc(Cl)c(NC(=O)c3coc4ccccc34)cc2F)[C@@H]1c1ncc(CCC(=O)O)s1"
group = "Satisfied"

[[record]]
chemical_smiles = "CCOC1CN([C@H]2C[C@@H](c3ncc(CCC(=O)O)s3)N(C(=O)Cc3cc(Cl)c(NC(=O)c4csc5ccccc45)cc3Cl)C2)C1"
group = "Satisfied"

[[record]]
chemical_smiles = "CCOC[C@@H]1CC[C@@H](c2ncc(CCC(=O)O)s2)N1C(=O)Cc1ccc2nc(Nc3cc(F)ccc3OC)oc2c1F"
group = "Not satisfied"


Okay, now this molecule:
Is reported pKi greater than or equal to 8 here: Cc1ccc(F)cc1Nc1nc2ccc(CC(=O)N3[C@H](c4ncc(CCC(=O)O)s4)C[C@@H]4CCCC[C@@H]43)c(F)c2o1 Satisfied

---

- protocol-description: Dispersibility test in Japanese Pharmacopoeia First and Second Solution
- Type: physicochemical
- measurement-setup: JP2, pH 6.8
attribute-measured: Dispersibility in Japanese Pharmacopoeia Second Solution (µg/mL)
Unit µg/mL implied. Number only.

Recorded results for 2 molecules are shown here.
[[record]]
chemical_smiles = "CO[C@@H]1C[C@@H](c2ncc(CCC(=O)O)s2)N(C(=O)Cc2cc(Cl)c(NC(=O)c3csc4ccccc34)cc2F)C1"
display_unit = "µg/mL"
observed_value = 330

[[record]]
chemical_smiles = "O=C(O)CCc1cnc([C@@H]2C[C@H](N3CCC(F)(F)CC3)CN2C(=O)Cc2cc(Cl)c(NC(=O)c3coc4ccccc34)cc2F)s1"
display_unit = "µg/mL"
observed_value = 380


Fill in: Dispersibility in Japanese Pharmacopoeia Second Solution of CO[C@H]1C[C@@H](c2ncc(CCC(=O)O)s2)N(C(=O)Cc2cc(Cl)c(Nc3nc4ccccc4o3)cc2F)C1 is ___ 730

---

- protocol-description: Dispersibility test in Japanese Pharmacopoeia First and Second Solution
- Type: physicochemical
- measurement-setup: JP2, pH 6.8
Threshold-based label: Dispersibility in Japanese Pharmacopoeia Second Solution under 700 µg/mL gives Met, Dispersibility in Japanese Pharmacopoeia Second Solution not under 700 µg/mL gives Not met.

[[record]]
chemical_smiles = "CO[C@H]1C[C@@H](c2ncc(CCC(=O)O)s2)N(C(=O)Cc2cc(Cl)c(NC(=O)c3cn(C)c4ccccc34)cc2Cl)C1"
group = "Not met"

[[record]]
chemical_smiles = "COC1CN([C@H]2C[C@@H](c3ncc(CCC(=O)O)s3)N(C(=O)Cc3cc(Cl)c(NC(=O)c4csc5ccccc45)cc3Cl)C2)C1"
group = "Not met"

[[record]]
chemical_smiles = "Cn1cc(C(=O)Nc2cc(Cl)c(CC(=O)N3C[C@@H](N4CCC(F)(F)CC4)C[C@H]3c3ncc(CCC(=O)O)s3)cc2Cl)c2ccccc21"
group = "Met"


Below 700 µg/mL on Dispersibility in Japanese Pharmacopoeia Second Solution? Entry CCOC1CN([C@H]2C[C@@H](c3ncc(CCC(=O)O)s3)N(C(=O)Cc3cc(Cl)c(NC(=O)c4cn(C)c5ccccc45)cc3Cl)C2)C1 Not met

Note, next up: O=C(O)CCc1cnc([C@@H]2C[C@H](Oc3cccnc3)CN2C(=O)Cc2cc(Cl)c(NC(=O)c3csc4ccccc34)cc2F)s1 Met

Cn1cc(C(=O)Nc2cc(Cl)c(CC(=O)N3CCC[C@H]3c3ncc(CCC(=O)O)s3)cc2Cl)c2ccccc21 ? Met

What about this compound? Cn1cc(C(=O)Nc2cc(F)c(CC(=O)N3C[C@@H](N4CCC(F)(F)CC4)C[C@H]3c3ncc(CCC(=O)O)s3)cc2Cl)c2ccccc21 Met

Also check C[C@@H]1CN([C@H]2C[C@@H](c3ncc(CCC(=O)O)s3)N(C(=O)Cc3cc(Cl)c(NC(=O)c4csc5ccccc45)cc3F)C2)C[C@H](C)O1 Not met

And for COc1ccccc1Nc1nc2ccc(CC(=O)N3C[C@@H](OC)C[C@H]3c3ncc(CCC(=O)O)s3)c(F)c2o1 ? Not met

Would you kindly repeat that for O=C(O)CCc1cnc([C@@H]2C[C@H](N3CCN(CC(F)(F)F)CC3)CN2C(=O)Cc2cc(Cl)c(NC(=O)c3coc4ccccc34)cc2Cl)s1 ? Not met

How about Cn1cc(C(=O)Nc2cc(Cl)c(CC(=O)N3C[C@@H](N4CCN(CC(F)(F)F)CC4)C[C@H]3c3ncc(CCC(=O)O)s3)cc2Cl)c2ccccc21 ? Not met

Do the same for CCOC[C@@H]1CC[C@@H](c2ncc(CCC(=O)O)s2)N1C(=O)Cc1ccc2nc(Nc3cc(F)ccc3C)oc2c1F please Not met

Recorded values, source patent US20070232601A1.
